I'd be grateful if you could share measured GI50 for these entries.
System: HCT-116 colon carcinoma cell line
Measurement notes: Growth inhibition experiments (MTT, 5 d), HCT-116
Type: cell-based, human
Details: group A derivatives, small panel of cancer cell lines; HCT-116 human colon carcinoma; read-out: GI50 HCT-116
Protocol: Cells were seeded at 6×10^3 cells per well of 96-well plates (Corning CellBind®) in 180 μl complete medium and directly treated with chondramides dissolved in methanol in a serial dilution. Each compound was tested in duplicate for 5 d, as well as the internal methanol control. […] The absorbance at 570 nm was measured using a microplate reader (EL808, Bio-Tek Instruments Inc.), and cell viability was expressed as percentage relative to the respective methanol control. […]
# value in nM; strip the unit string

Please report the recorded GI50 for CCC1C/C=C(\C)CC(C)C(=O)NC(C)C(=O)N(C)C(Cc2c(Cl)[nH]c3ccccc23)C(=O)NC(c2ccc(O)c(Cl)c2)CC(=O)O1 (single isomer, unassigned) [CA7-Fr1] .
16.3

Same thing, different molecule: CCC1C/C=C(\C)CCC(=O)NC(C)C(=O)N(C)C(Cc2c(Cl)[nH]c3ccccc23)C(=O)NC(c2ccc(O)c(Cl)c2)CC(=O)O1 (stereo not drawn)
0.2

Further, for CCC1C/C=C(\C)CC(C)C(=O)NC(C)C(=O)N(C)C(Cc2c(Cl)[nH]c3ccccc23)C(=O)NC(c2ccc(O)c(Cl)c2)CC(=O)O1 (single isomer, unassigned) [CA7-Fr2] ?
0.8

Cool, now CCC1C/C=C(\C)CC(C)C(=O)NC(C)C(=O)N(C)C(C(C)C)C(=O)NC(c2ccc(O)c(Cl)c2)CC(=O)O1 (single isomer, unassigned) [CA6-Fr1]
79.4

Now consider CCC1C/C=C(\C)CC(C)C(=O)NC(C)C(=O)N(C)C(C(C)C)C(=O)NC(c2ccc(O)c(Cl)c2)CC(=O)O1 (single isomer, unassigned) [CA6-Fr2] and answer again.
101

Try this molecule next: CCC1C/C=C(\C)CCC(=O)NC(C)C(=O)N(C)C(C(C)C)C(=O)NC(c2ccc(O)c(Cl)c2)CC(=O)O1 (stereo not drawn) [CA5]
77.3
